Sourced from PubChem BioAssay (NCI)

# System: MOLT-4 leukemia
# protocol-summary: NCI-60 one-dose screen, 48 h (100 = growth as untreated, 0 = no growth, -100 = all killed)
# conditions-used: 10 µM unless noted
# Procedure: Growth inhibition of the MOLT-4 human tumor cell line is measured as a screen for anti-cancer activity. Cells are grown in 96 well plates and exposed to the test compound for 48 hours. Compounds are tested at a single concentration, which is 10^-5 M for most compounds. The reported endpoint is percent growth (GI% or GIPRCNT), where numbers from 0 - 100% represent growth inhibition, and numbers from -100% - 0 represent cell death. For example, a value of 40 represents 60% growth inhibition. […]
The panel holds about 83,000 compounds, 20% with a hit somewhere; the sample as a whole holds those more often.
readout: growth (%)
Form entry: value (%) — number only.

> print(dat)
                                   compound  readout  result.unit  value
1  O=[N+]([O-])c1ccccc1Sc1ccccc1[N+](=O)[O-]   growth            %   94.8
2  OC1CSSC1Cn1cnc2c(Nc3ccc(OCc4cccc(F)c4)c(Cl)c3)ncnc21 (stereo not given)   growth            %  -41.8
3  CC(C)=CC(=O)N[C@H]1CC[C@]2(C)C3CC[C@]4(C)C(C(C)N(C)C)=CCC4C3CCC2[C@H]1O (stereo not given in full)   growth            %   48.1
4  CCN(CC)C(=O)C1=C(C)NC(=O)NC1c1ccc2c(c1)OCO2 (stereo not given)   growth            %    104
5  COc1cc2c(c(OC)c1OC)CCC(c1cccc(C(=O)Nc3ccc(Br)cc3)c1)O2 (stereo not given)   growth            %   25.1
6  CNC(=O)c1cc(Oc2ccc3c(c2)sc2nc(-c4cc(C(F)(F)F)cc(C(F)(F)F)c4)cn23)ccn1   growth            %   45.3
7   O=C(c1cccc(N2CCOCC2)n1)c1c[nH]c2ccccc12   growth            %    100
8  COCCn1cc(-c2nc(-c3c[nH]c4ncccc34)cs2)c2ccccc21   growth            %   48.7
9  Cc1ccc(C(=O)c2ccc(CC(=O)N/N=C/c3cccc(O)c3O)n2C)cc1   growth            %   11.2

Input: Respond only with growth recorded for c1cc(OCCCCCOc2cccc(-c3nc4ccccc4[nH]3)c2)cc(-c2nc3ccccc3[nH]2)c1
Output: -13.5

---

# System: TK-10 renal
# protocol-summary: NCI-60 one-dose screen, 48 h
# conditions-used: 10 µM unless noted
# Protocol: Growth inhibition of the TK-10 human tumor cell line is measured as a screen for anti-cancer activity. Cells are grown in 96 well plates and exposed to the test compound for 48 hours. Compounds are tested at a single concentration, which is 10^-5 M for most compounds. The reported endpoint is percent growth (GI% or GIPRCNT), where numbers from 0 - 100% represent growth inhibition, and numbers from -100% - 0 represent cell death. For example, a value of 40 represents 60% growth inhibition. […]
Compounds without any hit were thinned out: in the full panel of roughly 83,000, 20% have a hit. Active and inactive are the calls of the source. Rule for the calls: active = growth percent below 10; inactive = the rest.
Valid outcomes are listed here; reply with one: 1.0 = active, 0.0 = inactive

> print(dat)
                                   molecule  test.system  class.name
1  COc1ccc(Nc2ncc(I)c(NCCCNC(=O)C3CCC3)n2)cc1  TK-10 renal         1.0
2  O=Nc1ccc(NC(=O)Nc2ccc([N+](=O)[O-])cc2)cc1  TK-10 renal         0.0
3  N#Cc1c(-c2ccccc2)nc2c(c(-c3ccc(Cl)cc3)nn2-c2ccccc2)c1-c1ccc([N+](=O)[O-])cc1  TK-10 renal         0.0
4  c1csc(-c2cn3nc(-c4c[nH]c5ccccc45)sc3n2)c1  TK-10 renal         0.0
5  Cc1nc2ccccc2c(/C=C/c2ccc(F)cc2)c1C(=O)/C=C/c1ccccc1  TK-10 renal         0.0

Input: Just curious, what result did CC(C)(C)CC(C)(C)Nc1c(-c2c(O)c3ccccc3oc2=O)nc2sc3ccccc3n12 get here?
Output: 0.0

Input: Just curious, what result did COc1cc(/C=N/NC(=O)c2ccc(-n3cc(-c4ccccc4)nn3)cc2)cc(OC)c1OC get here?
Output: 0.0

Input: Just curious, what result did Cc1nc2sc(C(=O)Nc3cccc4ccccc34)c(N)c2cc1C(=O)c1ccccc1 get here?
Output: 0.0

Input: Just curious, what result did CCOC(=O)c1[nH]cc2c1CCc1sc(Nc3ccccn3)nc1-2 get here?
Output: 0.0

Input: Just curious, what result did CCOc1ccc(/C=C/C(=O)c2cccc(OCCCOc3cccc(C(=O)/C=C/c4ccc(OCC)cc4)c3)c2)cc1 get here?
Output: 0.0

Input: Just curious, what result did C/C(=C(\c1ccc(OCCN2CCCCCC2)cc1)c1ccc(OC(=O)c2ccccc2)cc1)c1ccc(Cl)cc1 get here?
Output: 0.0

---

Here the recorded growth is given for each entry.
# System: UO-31 renal
# protocol-summary: NCI-60 one-dose screen, 48 h (100 = growth as untreated, 0 = no growth, -100 = all killed)
# conditions-used: 10 µM unless noted
The panel holds about 83,000 compounds, 20% with a hit somewhere; the sample as a whole holds those more often. Calls of active or inactive are those of the source. The calls were made as follows: active = growth percent below 10; inactive = the rest.

Input: Respond only with growth recorded for Nc1nc2ccccc2c2c(=O)c3cc(Cl)ccc3sc12
Output: 86.6% (inactive)

Input: Respond only with growth recorded for COc1ccccc1S(=O)(=O)Nc1ccc2c3c(cc(CCC(=O)NCCCCNc4cccc5c4C(=O)N(C4CCC(=O)NC4=O)C5=O)cc13)C(=O)N2C (centres undefined)
Output: 55.2% (inactive)

Input: Respond only with growth recorded for Cc1ccc2c(/C=C/C(=O)c3cc(CN4CCOCC4)c(O)c4nc(C)ccc34)cc(CN3CCOCC3)c(O)c2n1
Output: -16.8% (active)

---

# System: MDA-MB-435 melanoma
# protocol-summary: NCI-60 one-dose screen, 48 h (100 = growth as untreated, 0 = no growth, -100 = all killed)
# conditions-used: 10 µM unless noted
This is part of a sample that, as a whole, favours compounds with a hit. Of some 83,000 tested, about 20% had one in any assay.
readout: growth (%)
Form entry: value (%) — number only.

Input: Respond only with growth recorded for CCOc1ncc([N+](=O)[O-])c(OCC)n1
Output: 124

---

Here the recorded growth is given for each entry.
# System: T-47D breast
# protocol-summary: NCI-60 one-dose screen, 48 h (100 = growth as untreated, 0 = no growth, -100 = all killed)
# conditions-used: 10 µM unless noted
The panel holds about 83,000 compounds, 20% with a hit somewhere; the sample as a whole holds those more often.
Form entry: value (%) — number only.

Example entries begin here.
> print(dat)
                                   molecule  readout  result.unit  value
1          Cc1ccccc1N1CCN(C(=S)c2ccccc2)CC1   growth            %   89.1
2  COc1ccc(/C=C(/C(=O)N2CCNCC2)c2cc(OC)c(OC)c(OC)c2)cc1O   growth            %   31.6
3  Nc1nc(N)c2c(n1)NC(c1cccc(Nc3ccnc4cc(C(F)(F)F)ccc34)c1)CC(c1ccc3c(c1)OCO3)=N2 (stereo not given)   growth            %   90.6
4  COc1ccc2[nH]cc(-c3nonc3-c3c[nH]c4ccc(Br)cc34)c2c1   growth            %   3.83
5  O=C(Nc1cc(Cl)ccc1O)c1ccccc1Nc1ccnc(C(F)(F)F)c1   growth            %  0.662

Now look at this entry.
Input: // fetch growth for CNC(=O)c1cc(Oc2ccc3c(c2)sc2nc(-c4ccc(Cl)c(C(F)(F)F)c4)cn23)ccn1 ; system: T-47D breast
Output: 25.7

---

# System: NCI-H322M lung
# protocol-summary: NCI-60 one-dose screen, 48 h (100 = growth as untreated, 0 = no growth, -100 = all killed)
# conditions-used: 10 µM unless noted
About 83,000 compounds went through this panel and 20% of them were active in at least one assay; those are over-represented in the sample as a whole.
Here the recorded growth is given for each entry.
Form entry: value (%) — number only.

Example entries begin here.
> print(dat)
                                   compound  result.unit  value
1  Clc1ccc(-c2nc(C(Cl)Cl)nc3cc(-c4ccccc4)nn23)cc1            %  -50.5
2  COC(=O)c1ccc2c(c1)c1c(C)c3cnccc3c(C)c1n2C            %    -14
3  COc1ccc(Nc2ncc(I)c(NCCCNC(=O)C3CCC3)n2)cc1            %   6.78
4  COc1nc(/C=C\Nc2ccc3c(c2)OCCOCCOCCOCCO3)nc(OC)n1            %   90.5
5  COC(=O)/C=C1/SC(=Nc2ccc(F)cc2)N(CCc2c[nH]c3ccc(O)cc23)C1=O            %   92.1

Input: Respond only with growth recorded for COCCn1cc(-c2nc(-c3cc4cccnc4n3C)cs2)c2ccccc21
Output: 41.6

Input: Respond only with growth recorded for CCCCCCCCn1ccc2cc(NC(=O)CN=[N+]=[N-])ccc21
Output: 102

Input: Respond only with growth recorded for COc1cc(/C=C/C(=O)c2cc(OC)c(OC)c(OC)c2)ccc1Oc1nc2c(c(=O)n(C)c(=O)n2C)n1C
Output: 0

Input: Respond only with growth recorded for CCN(CC)CCOc1ccc2ccc(=O)oc2c1
Output: 88.2

Input: Respond only with growth recorded for COc1cc(O)c2c(=O)c3c(CC=C(C)C)cc(OC)c(O)c3oc2c1
Output: 38.3

Input: Respond only with growth recorded for Cc1c2ncccc2nc2[nH]c3ccc(OCCN(C)C)cc3c12
Output: 13.2

Input: Respond only with growth recorded for C=C(C)[C@@H]1CC[C@]2(C(=O)N3CCN(C)CC3)CC[C@]3(C)[C@H](CC[C@@H]4[C@@](C)(CCC(=O)O)[C@H](C(=C)C)CC[C@]43C)[C@@H]12
Output: 98.5

Input: Respond only with growth recorded for COc1ccc(C(O)c2cc3c(N)c(C(=O)Nc4cccc5ccccc45)sc3nc2C)cc1 (stereo not given)
Output: 39.1

Input: Respond only with growth recorded for N#Cc1nn(-c2cc(=O)[nH]c3ccc(Br)cc23)c(N)c1C#N
Output: 93.3

Input: Respond only with growth recorded for O=C(N/N=C/c1ccc(Cl)cc1)c1ccc(NC(=O)c2ccccn2)cc1
Output: 66.4

Input: Respond only with growth recorded for COC(=O)c1sccc1-c1cc(O)c(C(=O)Nc2ccccc2)s1
Output: 93.3
